method summary: NPP lethality (estimated LD50)
run conditions: mouse, in vivo, ip
LD50 at 48 h listing for selected compounds.
endpoint: LD50 at 48 h (mg/kg)

>>> df
                                   compound  inequality_sign  number
0  Cc1ccccc1-n1c(CC(=O)c2cccnc2)nc2ccccc2c1=O [IIIc]                =     562
1  Cc1ccccc1-n1c(CC(=O)c2ccccn2)nc2ccccc2c1=O [IIIb]                >     562
2  Cc1nc2ccccc2c(=O)n1-c1ccccc1 [phenyl H, 2-methyl-3-phenyl-4(3H)-quinazolinone, reference compound]                =     562
3  Cc1ccccc1-n1c(C)nc2ccccc2c1=O [methaqualone, 2-methyl-3-o-tolyl-4(3H)-quinazolinone, reference compound]                >     562

====

method summary: Neuropharmacological Profile (NPP): general CNS observational screen (depression, righting reflex, ataxia)
run conditions: at 30 mg/kg (value in parentheses), i.p., mice, score 0-8
Protocol: Representative compounds according to the present invention were tested for central nervous system activity by Pharmakon Laboratories of Scranton, Pennsylvania. […] Since this is a general CNS screening procedure, only peak effects were recorded. Certain measures of behavior and neurological deficit were scored in terms of intensity of effect, while most others were determined on an all or none basis. […] At the termination of the test, the results were recorded and tabulated. […]
CNS Depression listing for selected compounds.
endpoint: CNS Depression

                                   compound  number
0  CC(=O)Cc1nc2ccccc2c(=O)n1-c1ccccc1C [IIIn, 2-Acetonyl-3-o-tolyl-4(3H)-quinazolinone]       4
1  O=C(Cc1nc2ccccc2c(=O)n1-c1ccccc1Cl)c1ccncc1 [IVd]       2
2  Cc1ccc(-n2c(C)nc3ccccc3c2=O)cc1 [p-tolyl H, 2-methyl-3-p-tolyl-4(3H)-quinazolinone, reference compound]       4
3  Cc1ccccc1-n1c(CC(=O)C=Cc2ccccc2)nc2ccccc2c1=O [IIIf]       2
4  O=C(Cc1nc2ccccc2c(=O)n1-c1ccccc1Cl)C(F)(F)F [IVa]       6
5  Cc1ccccc1-n1c(CC(=O)c2ccccc2)nc2ccccc2c1=O [IIIg]       4
6  Cc1ccccc1-n1c(CC(=O)C(F)(F)F)nc2ccccc2c1=O [IIIa]       4
7  Cc1ccccc1-n1c(CC(=O)c2cccnc2)nc2ccccc2c1=O [IIIc]       4
8  Cc1nc2ccccc2c(=O)n1-c1ccccc1 [phenyl H, 2-methyl-3-phenyl-4(3H)-quinazolinone, reference compound]       4
9  Cc1ccccc1-n1c(C)nc2ccccc2c1=O [methaqualone, 2-methyl-3-o-tolyl-4(3H)-quinazolinone, reference compound]       8

====

method summary: NINCDS Subcutaneous Pentylenetetrazol (Metrazol) Seizure Threshold Test (scMet)
Type: in vivo, mice
run conditions: Mus musculus, sc; after 0.5 hr; read-out: scMet: dosage level that elicited protection
Description: 1. Neurological Activity Tests. […] Compounds were evaluated for anticonvulsant activity in two seizure models, the maximal electroshock seizure (MES) test and the subcutaneous pentylenetetrazol (Metrazol) seizure threshold (scMet) test. […] In the Secondary Evaluation, median effective doses (ED50) are determined in the MES, scMet and Rotorod assays using the procedures defined in Pharmacology, 95, 99-113 (1949). […]
minimal effective dose listing for selected molecules.
endpoint: minimal effective dose (mg/kg)

In [3]: df
Out[3]:
                                   molecule                endpoint  unit_symbol  number
0  Cc1ccccc1-n1c(C)nc2ccccc2c1=O [methaqualone, 2-methyl-3-o-tolyl-4(3H)-quinazolinone, reference compound]  minimal effective dose        mg/kg     100
1  Cc1ccccc1-n1c(CC(O)c2ccccc2)nc2ccccc2c1=O (centres unmarked)  minimal effective dose        mg/kg     300
2  Cc1ccccc1-n1c(CC(=O)c2ccc(NC(=O)C(F)(F)F)cc2)nc2ccccc2c1=O  minimal effective dose        mg/kg     300
3  CCc1nc2ccccc2c(=O)n1-c1ccccc1C [CH3, 2-Ethyl-3-o-tolyl-4(3H)-quinazolinone, reference compound]  minimal effective dose        mg/kg     100
4  Cc1ccccc1-n1c(CCc2ccccc2)nc2ccccc2c1=O [CH2 C6 H5, reference compound]  minimal effective dose        mg/kg     300
5  O=C(Cc1nc2ccccc2c(=O)n1-c1ccccc1Cl)c1ccncc1  minimal effective dose        mg/kg      30
6  Cc1ccccc1-n1c(CC(=O)c2ccncc2)nc2ccccc2c1=O  minimal effective dose        mg/kg      30
7  O=C(Cc1nc2ccccc2c(=O)n1-c1ccccc1)c1cccnc1  minimal effective dose        mg/kg     100

====

method summary: NINCDS Maximal Electroshock Seizure Test (MES)
Type: in vivo, mice
run conditions: Mus musculus, ip; after 0.5 hr; read-out: MES: dosage level that elicited protection
minimal effective dose listing for selected molecules.
endpoint: minimal effective dose

>>> df
                                   molecule                endpoint     result
0  Cc1ccccc1-n1c(CC(=O)c2ccncc2)nc2ccccc2c1=O  minimal effective dose  100 mg/kg
1  Cc1ccccc1-n1c(C)nc2cc(N)ccc2c1=O [H and 7-amino, reference compound]  minimal effective dose  100 mg/kg
2  O=C(Cc1nc2ccccc2c(=O)n1-c1ccccc1)c1cccnc1  minimal effective dose  100 mg/kg
3  O=C(Cc1nc2ccccc2c(=O)n1-c1ccccc1Cl)c1ccncc1  minimal effective dose  300 mg/kg
4  CCc1nc2ccccc2c(=O)n1-c1ccccc1C [CH3, 2-Ethyl-3-o-tolyl-4(3H)-quinazolinone, reference compound]  minimal effective dose  100 mg/kg
5  Cc1ccccc1-n1c(C)nc2ccccc2c1=O [methaqualone, 2-methyl-3-o-tolyl-4(3H)-quinazolinone, reference compound]  minimal effective dose  100 mg/kg

====

Rotorod: dosage level that elicited loss of balance listing for selected molecules.
method summary: NINCDS rotorod ataxia test (minimal neurotoxicity)
Format: in vivo, mice
run conditions: after 0.5 hr
endpoint: Rotorod: dosage level that elicited loss of balance (mg/kg)

                                   molecule  number
0  Cc1nc2ccccc2c(=O)n1-c1ccccc1Cl [mecloqualone, reference compound]      30
1  CCc1nc2ccccc2c(=O)n1-c1ccccc1C [CH3, 2-Ethyl-3-o-tolyl-4(3H)-quinazolinone, reference compound]     100
2  Cc1ccccc1-n1c(CC(=O)c2ccc(NC(=O)C(F)(F)F)cc2)nc2ccccc2c1=O     300
3  O=C(Cc1nc2ccccc2c(=O)n1-c1ccccc1Cl)C(F)(F)F     300
4  Cc1ccccc1-n1c(C)nc2cc(N)ccc2c1=O [H and 7-amino, reference compound]     100
5  Cc1ccccc1-n1c(CC(=O)c2ccc[n+](C)c2)nc2ccccc2c1=O     100
6  Cc1ccccc1-n1c(C)nc2ccccc2c1=O [methaqualone, 2-methyl-3-o-tolyl-4(3H)-quinazolinone, reference compound]     100
